Target: T1, TSHR coated onto tubes (human, UniProt P16473 21-764, limits assumed)
T1 construct: whole entry named; also called TSHR coated tubes; thyrotropin receptor
Assay: TSHR coated tubes, competitor 125I-M22 IgG
endpoint name: % inhib of 125I-M22 IgG binding at 0.01 µg/mL (%)
Write it as a number; the unit % goes unstated.

The value of % inhib of 125I-M22 IgG binding at 0.01 µg/mL measured for the binder 2B4 IgG (antibody, V domains shown) VH: DVQLQQSGTVLARPGASVRMSCKASGYSFTRYWIHWLKQRPGQGLEWIGAIFPGNRDTSYNQRFKGKAEVTAVTSASTAYLDLSSLTNEDSAVYYCTRWPYYGSIYVNFDYWGQGTTLTVSS VL: DIVMTQSPLSLPVSLGDQASISCRTSQNLVHRNGNTYLHWYLQKPGQSPKLLIYKISNRFSGVPDRFSGSGSGTDFTLKISRVEAEDLGVYFCSQGTHVPPTFGGGTKLEIKR turned out to be 1
